B1: library; a variant is named by its letters at N, in order (parent)
chain: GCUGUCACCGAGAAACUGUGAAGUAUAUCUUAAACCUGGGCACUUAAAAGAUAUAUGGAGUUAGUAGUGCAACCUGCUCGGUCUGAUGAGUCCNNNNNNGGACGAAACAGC

- Variants of: B1
- PROTOCOL DESCRIPTION: normalized RNA/DNA level with ligand (relative to sTRSVctl = 100) (log10 (% of sTRSVctl)); HEK293T; ligand: cyclic di-GMP (c-di-GMP-II aptamer); ligand concentration (+) RNA-Seq: 1 mM; higher = less ribozyme self-cleavage, higher mRNA level
- MEASUREMENT CONTEXT: reporter: mCherry (pCS4076), ligand present: yes
MEASUREMENT KIND: normalized RNA/DNA level with ligand (log10)
Format: numeric value only, no unit, no commentary.

Below, each entry is followed by its recorded normalized RNA/DNA level with ligand (log10) result.
| MUTATION ID | REPORTED RESULT |
| --- | --- |
| GCAUGU | 1.69 |
| CGUCUC | 1.87 |
| GUUUAA | 1.74 |
| AAACAU | 1.77 |
| AGUUAA | 1.68 |

For the variant shown here, `CUCACC` , give the reported normalized RNA/DNA level with ligand (log10). 1.83

Can you check `GUGGAG` next? 1.71

Can you check `ACCGAA` next? 1.62
